These data points were gathered from patent US20220380378A1.

Assay: Microsomal stability assay, liver microsome half-life (monkey)
Type: in vitro ADME
Settings: pH 7.4; monkey liver microsomes 0.5 mg/mL, 1 μM compound, 37° C.; read-out: Liver microsome T1/2 Monkey
VALUE KIND: half-life at 1 μM

[[record]]
compound = "CC(C)(c1ccc(-c2cnc3nc(NS(C)(=O)=O)ccc3c2)cc1)c1cc(Cl)c(OCCCl)c(C#N)c1"
reported_value = "> 2 h"


Request: Fill blank: measured half-life at 1 μM of the compound CC(C)(c1ccc(OCc2ccnc(NS(C)(=O)=O)c2F)cc1)c1cc(Cl)c(OCCCl)c(C#N)c1 is ____.
Result: > 2 h

Request: Another compound: CS(=O)(=O)Nc1ncc2cc(-c3ccc(Oc4cc(Cl)c(OCCCl)c(C#N)c4)cc3)ccc2n1
Result: > 2 h

Request: Another compound: CC(C)(c1ccc(-c2ccc3nc(NS(C)(=O)=O)ccc3n2)cc1)c1cc(Cl)c(OCCCl)c(C#N)c1
Result: > 2 h

Request: Another compound: CNC(=O)c1ccc(N2C(=S)N(c3ccc(C#N)c(C(F)(F)F)c3)C(=O)C2(C)C)cc1F [Enzalutamide, enzalutamide, reference compound]
Result: > 2 h

Request: Another compound: CC(C)(c1ccc(-c2ccn3nc(NS(C)(=O)=O)nc3c2)cc1)c1cc(Cl)c(OCCCl)c(C#N)c1
Result: > 2 h

Request: Another compound: CC(C)(c1ccc(-c2ccc3nc(NS(C)(=O)=O)ncc3c2)cc1)c1cc(Cl)c(OCCCl)c(C#N)c1
Result: > 2 h

----------
Biological target: androgen receptor (AR) (Homo sapiens, UniProt P10275, T878A)
Experiment: Androgen-induced PSA (6.1 kb)-luciferase reporter assay in LNCaP cells (R1881 1 nM)
Type: cell-based
Parameters: endogenous in cells; host or cells: LNCaP
Conditions: 24 h, read-out: PSA-Luc IC50 Range
pIC50: −log10 of the molar value.
VALUE KIND: pIC50

# count of solved cases: 4
[[record]]
molecule = "CS(=O)(=O)NC[C@H]1CC[C@H](COc2ccc3c(ccn3-c3cc(Cl)c(OCCCl)c(C#N)c3)c2)CC1"
target_or_test_system = "androgen receptor (AR) (Homo sapiens, UniProt P10275, T878A)"
reported_value = "5.70 to 6.30"

[[record]]
molecule = "CS(=O)(=O)NC12CC(COc3ccc4c(c3)CCCC4c3cc(Cl)c(OCCCl)c(C#N)c3)(C1)C2 (stereo not shown)"
target_or_test_system = "androgen receptor (AR) (Homo sapiens, UniProt P10275, T878A)"
reported_value = "< 5.70"

[[record]]
molecule = "CC(C)(c1ccc(OCc2ccnc(NS(C)(=O)=O)n2)c(Cl)c1)c1cc(Cl)c(OCCCl)c(C#N)c1"
target_or_test_system = "androgen receptor (AR) (Homo sapiens, UniProt P10275, T878A)"
reported_value = "5.70 to 6.30"

[[record]]
molecule = "CC(C)(c1ccc(-c2cnc3nc(NS(C)(=O)=O)ncc3c2)cc1)c1cc(Cl)c(OCCCl)c(C#N)c1"
target_or_test_system = "androgen receptor (AR) (Homo sapiens, UniProt P10275, T878A)"
reported_value = "5.70 to 6.30"


Request: Fill blank: measured pIC50 of the molecule CS(=O)(=O)Nc1nccc(COc2ccc3c(c2)COC3c2cc(Cl)c(OCCCl)c(C#N)c2)n1 (stereo not shown) is ____.
Result: < 5.70

Request: Another molecule: CC(C)(c1ccc(-c2ccc3sc(NS(C)(=O)=O)nc3c2)cc1)c1cc(Cl)c(OCCCl)c(C#N)c1
Result: 5.70 to 6.30

Request: Another molecule: CC(C)(c1ccc(-c2cnc3c(c2)CCCC3NS(C)(=O)=O)cc1)c1cc(Cl)c(OCCCl)c(C#N)c1 (stereo not shown)
Result: < 5.70

----------
Catalogue of compounds with associated IC50
Target: androgen receptor (AR) (Homo sapiens, UniProt P10275, T878A)
Sequence (P10275 1-920 T878A): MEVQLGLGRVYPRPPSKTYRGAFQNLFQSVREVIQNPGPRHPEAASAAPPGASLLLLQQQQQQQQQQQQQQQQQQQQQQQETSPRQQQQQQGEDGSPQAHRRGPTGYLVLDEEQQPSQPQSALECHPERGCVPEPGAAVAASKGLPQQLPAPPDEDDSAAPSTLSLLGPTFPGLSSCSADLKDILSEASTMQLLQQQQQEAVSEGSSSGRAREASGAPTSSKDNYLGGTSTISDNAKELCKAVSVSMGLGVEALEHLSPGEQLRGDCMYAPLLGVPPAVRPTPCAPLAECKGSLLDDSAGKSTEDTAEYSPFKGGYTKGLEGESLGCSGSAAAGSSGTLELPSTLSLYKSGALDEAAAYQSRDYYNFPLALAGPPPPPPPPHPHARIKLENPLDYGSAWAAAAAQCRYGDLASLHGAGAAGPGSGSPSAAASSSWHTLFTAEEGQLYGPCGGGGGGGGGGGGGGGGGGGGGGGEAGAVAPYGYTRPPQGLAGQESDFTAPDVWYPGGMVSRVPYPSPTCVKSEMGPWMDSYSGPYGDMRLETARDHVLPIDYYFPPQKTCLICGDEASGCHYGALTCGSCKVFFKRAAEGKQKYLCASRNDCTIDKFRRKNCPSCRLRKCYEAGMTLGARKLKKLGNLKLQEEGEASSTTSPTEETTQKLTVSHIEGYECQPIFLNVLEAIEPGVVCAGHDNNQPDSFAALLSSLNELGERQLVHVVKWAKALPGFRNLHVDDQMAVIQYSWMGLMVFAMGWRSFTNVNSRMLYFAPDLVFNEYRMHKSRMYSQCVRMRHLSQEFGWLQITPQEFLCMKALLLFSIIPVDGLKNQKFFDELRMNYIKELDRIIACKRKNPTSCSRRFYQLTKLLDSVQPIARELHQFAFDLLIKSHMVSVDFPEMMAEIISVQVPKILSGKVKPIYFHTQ
Experiment: Androgen-induced PSA (6.1 kb)-luciferase reporter assay in LNCaP cells (R1881 1 nM)
Type: cell-based
Design: endogenous in cells; host or cells: LNCaP
Settings: 24 h, read-out: PSA-Luc IC50 Range

# count of solved cases: 6
[[record]]
cpd_smiles = "N#Cc1cc(-n2ccc3cc(OCc4coc(S(N)(=O)=O)c4)ccc32)cc(Cl)c1OCCCl"
reported_value = "0.5 to 2 µM"

[[record]]
cpd_smiles = "CC(C)(c1ccc(Oc2cccc3nc(NS(C)(=O)=O)ncc23)cc1)c1cc(Cl)c(OCCCl)c(C#N)c1"
reported_value = "0.5 to 2 µM"

[[record]]
cpd_smiles = "CS(=O)(=O)N1CC(CCOc2ccc3c(ccn3-c3cc(Cl)c(OCCCl)c(C#N)c3)c2)C1"
reported_value = "0.5 to 2 µM"

[[record]]
cpd_smiles = "CC(C)(c1ccc(-c2cnc3nc(NS(C)(=O)=O)oc3c2)cc1)c1cc(Cl)c(OCCCl)c(C#N)c1"
reported_value = "> 2 µM"

[[record]]
cpd_smiles = "CS(=O)(=O)Nc1ncc(COc2ccc3c(ccn3-c3cc(Cl)c(OCCCl)c(C#N)c3)c2)cn1"
reported_value = "0.5 to 2 µM"

[[record]]
cpd_smiles = "CS(=O)(=O)Nc1ncc(COc2ccc3c(ccn3-c3cc(Cl)c(OCCCl)c(C#N)c3)c2)c(N)n1"
reported_value = "> 2 µM"


// next entry
Request: Param readout= IC50; system= androgen receptor (AR) (Homo sapiens, UniProt P10275, T878A); entry= CS(=O)(=O)NC1CCN(CCc2ccc3c(ccn3-c3cc(Cl)c(OCCCl)c(C#N)c3)c2)CC1 ; returns value.
Result: 0.5 to 2 µM

----------
Assay: Microsomal stability assay, liver microsome half-life (rat)
Format: in vitro ADME
Conditions: pH 7.4; rat liver microsomes 0.5 mg/mL, 1 μM compound, 37° C.; read-out: Liver microsome T1/2 Rat
Catalogue of compounds with associated half-life at 1 μM

# count of solved cases: 3
[[record]]
compound = "CC(C)(c1ccc(OCc2ccnc(NS(C)(=O)=O)n2)cc1)c1cc(F)c(N2CCOCC2)c(C#N)c1 [Compound A262]"
value_kind = "half-life at 1 μM"
reported_value = "1.63 h"

[[record]]
compound = "CS(=O)(=O)NC12CC(COc3ccc4c(c3)CCC4c3cc(Cl)c(OCCCl)c(C#N)c3)(C1)C2 (stereo not shown) [Compound A246]"
value_kind = "half-life at 1 μM"
reported_value = "1.08 h"

[[record]]
compound = "CC(C)(c1ccc(-c2ccc3nc(NS(C)(=O)=O)sc3c2)cc1)c1cc(Cl)c(OCCCl)c(C#N)c1 [Compound A274]"
value_kind = "half-life at 1 μM"
reported_value = "> 2 h"


Request: Fill blank: measured half-life at 1 μM of the compound CC(C)(c1ccc(-c2ccc3nc(NS(C)(=O)=O)nc(N)c3c2)cc1)c1cc(Cl)c(OCCCl)c(C#N)c1 [Compound A173] is ____.
Result: > 2 h

Request: Another compound: CC(C)(c1ccc(-c2cnc3c(c2)CCC3NS(C)(=O)=O)cc1)c1cc(Cl)c(OCCCl)c(C#N)c1 (stereo not shown) [Compound A217]
Result: 0.433 h

Request: Another compound: CS(=O)(=O)NC1CCN(Cc2ccc3c(ccn3-c3cc(Cl)c(OCCCl)c(C#N)c3)c2)CC1(F)F (stereo not shown) [Compound A239]
Result: > 2 h

Request: Another compound: C[C@@H](Oc1ccc(C(C)(C)c2cc(Cl)c(OCCCl)c(C#N)c2)cc1)C12CC(NS(C)(=O)=O)(C1)C2 [Compound A264]
Result: > 2 h
